target or system: ATX (Homo sapiens, UniProt Q13822)
Construct: conditioned serum-free medium (CCM) from MDA-MB-435 cells as the source of ATX; endogenous in cells; host or cells: MDA-MB-435 cells (about 10x concentrated conditioned serum-free medium)
procedure summary: ATX inhibition assay (FS-3 substrate)
Assay type: biochemical
condition summary: preliminary screen; FS-3 hydrolysis at one hour, normalized to vehicle control, mean±S.D.; same values given at 10 μM in Table 5
metric: % Response (%)

>>> readout_value("Nc1ccc(N=Nc2ccc(-c3ccc(N=Nc4c(S(=O)(=O)[O-])cc5cc(S(=O)(=O)[O-])c(N=Nc6cccc([N+](=O)[O-])c6)c(N)c5c4O)cc3)cc2)c2cc(S(=O)(=O)[O-])ccc12.[Na+].[Na+].[Na+] [compound 79742]")
36
>>> readout_value("Nc1ccc(N=Nc2ccc(-c3ccc(N=Nc4c(S(=O)(=O)O)cc5cc(S(=O)(=O)O)c(N=Nc6ccc([N+](=O)[O-])cc6)c(N)c5c4O)cc3)cc2)c(N)c1.[Na+] [compound 65848]")
48
